Test: preliminary PK in mCRPC participants (Phase 1/2)
Format: in vivo, human
Conditions: human, plasma, oral, 20 mg, 20 mg QD, individual value (n = 1); read-out: AUC0-24 Day 21
observed_property: AUC(0-t) (ng·h/mL)
Express your answer in ng·h/mL, writing the number without its unit.

[ask] # AUC(0-t) lookup, item COc1cc(O[C@H]2C(C)(C)[C@H](NC(=O)c3ccc(N4CCC(CN5CCN(c6ccc(C(=O)N[C@H]7CCC(=O)NC7=O)c(F)c6)CC5)CC4)cc3)C2(C)C)ccc1C#N [Compound A]
[reply] 997

###

Assay: food/PPI effect on single-dose PK in healthy volunteers (phase 1)
Format: in vivo, human
Conditions: male, human, plasma, oral, 200 mg, 200 mg alone, fasted; read-out: AUCinf, Geometric LS Mean
observed_property: AUC(0-inf) (ng·h/mL)
Express your answer in ng·h/mL, writing the number without its unit.

[ask] # AUC(0-inf) lookup, item COc1cc(O[C@H]2C(C)(C)[C@H](NC(=O)c3ccc(N4CCC(CN5CCN(c6ccc(C(=O)N[C@H]7CCC(=O)NC7=O)c(F)c6)CC5)CC4)cc3)C2(C)C)ccc1C#N
[reply] 3460
